GI50 overview
System: SR
procedure.text: Growth inhibition of human SR cells
Assay type: functional
readout.kind: GI50 (µM)

# compound, value
data = [
    ("COc1cc(Cc2c(C)cc(OC)c3[nH]c4ccccc4c23)cc2c1[nH]c1ccccc12", 7.76),
    ("COc1cc(Cn2c3ccccc3c3cc(C)cc(OC)c32)cc2c1[nH]c1ccccc12", 16.6),
    ("COc1cc(C)cc2c1[nH]c1ccccc12", 10.2),
    ("C=C(C)C(O)CCC1(C)C=Cc2c(c(C)cc3c2[nH]c2ccccc23)O1 (centres undefined)", 4.47),
]

---

Tested on: HT-29
procedure.text: Growth inhibition of human HT29 cells
Assay type: functional
GI50 overview

# molecule, GI50 (µM)
records = [
    ("COc1cc(Cn2c3ccccc3c3cc(C)cc(OC)c32)cc2c1[nH]c1ccccc12", 17),
    ("C=C(C)C(O)CCC1(C)C=Cc2c(c(C)cc3c2[nH]c2ccccc23)O1 (stereo not drawn)", 1.7),
    ("CC(C)=CCCC1(C)C=Cc2c(ccc3c2[nH]c2cc(O)c(C)cc23)O1 (stereo not drawn)", 4.9),
    ("COc1cc(Cc2c(C)cc(OC)c3[nH]c4ccccc4c23)cc2c1[nH]c1ccccc12", 7.76),
    ("COc1cc(C(=O)O)cc2c1[nH]c1ccccc12", 25.1),
    ("CC1=CC(=O)c2[nH]c3ccccc3c2C1=O", 17.8),
    ("COc1cc(C)cc2c1[nH]c1ccccc12", 7.76),
    ("Cc1cc2c(cc1O)[nH]c1cc3c(cc12)C=CC(C)(C)O3", 11.7),
]

---

procedure.text: Growth inhibition of human DMS144 cells
Type: functional
GI50 overview
readout.kind: GI50

# compound, value
measured = [
    ("COc1cc(C)cc2c1[nH]c1ccccc12", "9.55 µM"),
    ("COc1cc(Cc2c(C)cc(OC)c3[nH]c4ccccc4c23)cc2c1[nH]c1ccccc12", "10.5 µM"),
    ("Cc1cc2c(cc1O)[nH]c1cc3c(cc12)C=CC(C)(C)O3", "10.7 µM"),
    ("CC(C)=CCCC1(C)C=Cc2c(ccc3c2[nH]c2cc(O)c(C)cc23)O1 (stereo not drawn)", "7.08 µM"),
    ("CC1=CC(=O)c2[nH]c3ccccc3c2C1=O", "4.27 µM"),
    ("COc1cc(C(=O)O)cc2c1[nH]c1ccccc12", "25.1 µM"),
    ("COc1ccc2c([nH]c3cc(O)c(C)cc32)c1CC=C(C)C", "20.9 µM"),
    ("COc1cc(Cn2c3ccccc3c3cc(C)cc(OC)c32)cc2c1[nH]c1ccccc12", "20 µM"),
]

---

log10 GI50 overview
Tested on: NCI-H226
procedure.text: Growth inhibition of human NCI-H226 cells
Assay type: functional
readout.kind: log10 GI50 (log10 of the value in µM)

# molecule, value
records = [
    ("Cc1cc2c(cc1O)[nH]c1cc3c(cc12)C=CC(C)(C)O3", 1.28),
    ("COc1cc(Cn2c3ccccc3c3cc(C)cc(OC)c32)cc2c1[nH]c1ccccc12", 1.23),
    ("COc1cc(C)cc2c1[nH]c1ccccc12 [MURRAYAFOLINE A]", 0.93),
    ("COc1ccc2c([nH]c3cc(O)c(C)cc32)c1CC=C(C)C", 1.40),
    ("C=C(C)C(O)CCC1(C)C=Cc2c(c(C)cc3c2[nH]c2ccccc23)O1 (stereo not given)", 0.80),
    ("COc1cc(CO)cc2c1[nH]c1ccccc12 [KOENOLINE]", 0.24),
    ("COc1cc(C(=O)O)cc2c1[nH]c1ccccc12 [MUKOEIC ACID]", 1.40),
    ("CC1=CC(=O)c2[nH]c3ccccc3c2C1=O [MURRAYAQUINONE A]", 0.82),
    ("COc1cc(Cc2c(C)cc(OC)c3[nH]c4ccccc4c23)cc2c1[nH]c1ccccc12", 0.67),
    ("CC(C)=CCCC1(C)C=Cc2c(ccc3c2[nH]c2cc(O)c(C)cc23)O1 (stereo not given)", 0.85),
]

---

EC50 overview
Tested on: COLO 205
procedure.text: Growth inhibition of human COLO205 cells
Type: functional
condition.details: read-out: ED50 (the source's name)
readout.kind: EC50 (µg/mL)

# smiles.repr, readout.kind, value.units, rel, value
records = [
    ("CC1=CC(=O)c2[nH]c3ccc(F)cc3c2C1=O", "EC50", "µg/mL", "=", 9.19),
    ("CC1=CC(=O)c2[nH]c3ccc(Cl)cc3c2C1=O", "EC50", "µg/mL", ">", 20),
    ("COc1cccc2c3c([nH]c12)C(=O)C(C)=CC3=O", "EC50", "µg/mL", "=", 5.18),
    ("COc1ccc2[nH]c3c(c2c1)C(=O)C(C)=CC3=O", "EC50", "µg/mL", "=", 0.87),
    ("CC1=CC(=O)c2c([nH]c3ccc(Cl)cc23)C1=O", "EC50", "µg/mL", "=", 4.42),
    ("COc1cccc2c3c([nH]c12)C(=O)C=C(C)C3=O", "EC50", "µg/mL", "=", 4.22),
]

---

Tested on: COLO 205
procedure.text: Growth inhibition of human COLO205 cells
Format: functional
condition.details: read-out: ED50 (the source's name)
readout.kind: EC50 (µg/mL)

# smiles.repr, value.units, rel, value
rows = [
    ("CC1=CC(=O)c2c([nH]c3ccc(F)cc23)C1=O", "µg/mL", "=", 4.5),
    ("CC1=CC(=O)c2[nH]c3ccccc3c2C1=O", "µg/mL", "=", 3.85),
    ("CC1=CC(=O)c2[nH]c3ccc(C)cc3c2C1=O", "µg/mL", "=", 3.52),
    ("COc1ccc2c3c([nH]c2c1)C(=O)C=C(C)C3=O", "µg/mL", ">", 20),
    ("CC1=CC(=O)c2c([nH]c3ccc(C)cc23)C1=O", "µg/mL", "=", 3.2),
    ("COc1ccc2[nH]c3c(c2c1)C(=O)C=C(C)C3=O", "µg/mL", ">", 20),
    ("COc1ccc2c3c([nH]c2c1)C(=O)C(C)=CC3=O", "µg/mL", "=", 4.51),
]

---

GI50 overview
procedure.text: Growth inhibition of human RPMI8266 cells
Format: functional
readout.kind: GI50

# compound, value
data = [
    ("COc1cc(C(=O)O)cc2c1[nH]c1ccccc12", "25.1 µM"),
    ("CC(C)=CCCC1(C)C=Cc2c(ccc3c2[nH]c2cc(O)c(C)cc23)O1 (centres undefined)", "6.61 µM"),
    ("COc1cc(Cn2c3ccccc3c3cc(C)cc(OC)c32)cc2c1[nH]c1ccccc12", "25.1 µM"),
    ("COc1cc(Cc2c(C)cc(OC)c3[nH]c4ccccc4c23)cc2c1[nH]c1ccccc12", "10 µM"),
    ("C=C(C)C(O)CCC1(C)C=Cc2c(c(C)cc3c2[nH]c2ccccc23)O1 (centres undefined)", "2.95 µM"),
    ("Cc1cc2c(cc1O)[nH]c1cc3c(cc12)C=CC(C)(C)O3", "9.12 µM"),
    ("COc1ccc2c([nH]c3cc(O)c(C)cc32)c1CC=C(C)C", "8.32 µM"),
    ("CC1=CC(=O)c2[nH]c3ccccc3c2C1=O", "5.89 µM"),
    ("COc1cc(C)cc2c1[nH]c1ccccc12", "8.71 µM"),
]

---

Test system: M14
procedure.text: Growth inhibition of human M14 cells
Format: functional

# compound, GI50
measured = [
    ("COc1cc(Cn2c3ccccc3c3cc(C)cc(OC)c32)cc2c1[nH]c1ccccc12", "6.31 µM"),
    ("CC1=CC(=O)c2[nH]c3ccccc3c2C1=O", "4.17 µM"),
    ("C=C(C)C(O)CCC1(C)C=Cc2c(c(C)cc3c2[nH]c2ccccc23)O1 (centres undefined)", "6.61 µM"),
    ("CC(C)=CCCC1(C)C=Cc2c(ccc3c2[nH]c2cc(O)c(C)cc23)O1 (centres undefined)", "3.89 µM"),
    ("COc1cc(Cc2c(C)cc(OC)c3[nH]c4ccccc4c23)cc2c1[nH]c1ccccc12", "5.13 µM"),
    ("COc1cc(C)cc2c1[nH]c1ccccc12", "7.24 µM"),
    ("COc1ccc2c([nH]c3cc(O)c(C)cc32)c1CC=C(C)C", "1.62 µM"),
    ("COc1cc(C(=O)O)cc2c1[nH]c1ccccc12", "25.1 µM"),
    ("Cc1cc2c(cc1O)[nH]c1cc3c(cc12)C=CC(C)(C)O3", "6.03 µM"),
]
